Attribution: BindingDB's records for doi:10.1021/jm030165t

Molecular target: Bifunctional dihydrofolate reductase-thymidylate synthase (Plasmodium falciparum (isolate K1 / Thailand))
Sequence (P13922 whole entry): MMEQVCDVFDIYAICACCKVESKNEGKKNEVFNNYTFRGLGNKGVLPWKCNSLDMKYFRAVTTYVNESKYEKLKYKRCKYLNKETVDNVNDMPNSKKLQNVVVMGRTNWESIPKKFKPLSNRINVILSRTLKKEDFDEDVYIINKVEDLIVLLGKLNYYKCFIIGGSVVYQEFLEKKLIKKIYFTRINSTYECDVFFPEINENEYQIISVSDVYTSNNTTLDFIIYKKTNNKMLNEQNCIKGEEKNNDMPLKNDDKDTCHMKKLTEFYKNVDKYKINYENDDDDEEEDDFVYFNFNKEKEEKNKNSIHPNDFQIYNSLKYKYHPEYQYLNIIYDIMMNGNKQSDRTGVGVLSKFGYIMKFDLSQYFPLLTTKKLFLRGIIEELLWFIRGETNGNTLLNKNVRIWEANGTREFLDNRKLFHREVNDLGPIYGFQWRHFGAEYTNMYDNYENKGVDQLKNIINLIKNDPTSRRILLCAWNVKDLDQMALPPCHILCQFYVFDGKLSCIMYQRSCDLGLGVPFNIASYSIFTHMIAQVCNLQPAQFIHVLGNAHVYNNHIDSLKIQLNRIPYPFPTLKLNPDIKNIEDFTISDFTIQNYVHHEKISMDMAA
Test: Binding affinity towards wild-type dihydrofolate reductase of Plasmodium falciparum.
recorded.endpoint: log10 Ki (log10 of the value in nM)
In our notation, the value equals log10 of Ki in nM.

- NC1=NC(c2cccc(OCCCOc3cc(Cl)c(Cl)cc3Cl)c2)N(c2cccc(Cl)c2)C(N)=N1 (stereo not drawn): 0.60
- CCCCCCC1(C)N=C(N)N=C(N)N1c1ccc(Cl)cc1 (stereo not drawn): -0.22
- NC1=NC(c2cccc(OCc3ccccc3)c2)N(c2ccc(Cl)cc2)C(N)=N1 (stereo not drawn): -0.15
- NC1=NC(c2cccc(Oc3cc(Cl)cc(Cl)c3)c2)N(c2cccc(Cl)c2)C(N)=N1 (stereo not drawn): 0.26

Enquiry: Consider the molecule NC1=NC(c2ccc(Oc3ccccc3)cc2)N(c2cccc(Cl)c2)C(N)=N1 (stereo not drawn) and give its measured log10 Ki.
Return: -0.15

Enquiry: Now try CC(=O)OCCCc1nc(N)nc(N)c1-c1ccccc1 .
Return: 1.03

Enquiry: Now try NC1=NC(c2cccc(Oc3cccc(C(F)(F)F)c3)c2)N(c2cccc(Cl)c2)C(N)=N1 (stereo not drawn) .
Return: 0.43

Enquiry: Now try CC(C)C1(C)N=C(N)N=C(N)N1c1cccc(Cl)c1 (stereo not drawn) .
Return: 1.41

Enquiry: Now try CCCCCCCC1N=C(N)N=C(N)N1c1cccc(Cl)c1 (stereo not drawn) .
Return: 0.43

----------
Assay: In vitro anti-plasmodial activity against Plasmodium falciparum dihydrofolate reductase C59R+S108N/I164L (Csl-2) mutant
recorded.endpoint: log10 of IC50 (log10 of the value in µM)
In our notation, the value equals log10 of IC50 in µM.

Enquiry: Consider the compound NC1=NC(c2ccccc2)N(c2cccc(Cl)c2)C(N)=N1 (configuration not stated) and give its measured log10 of IC50.
Return: -0.60

Enquiry: Now try Nc1nc(N)c(-c2ccccc2)c(CCCc2ccccc2)n1 .
Return: 0.43

Enquiry: Now try Nc1nc(N)c(-c2cccc(Cl)c2)c(CCCc2ccccc2)n1 .
Return: 0.56

Enquiry: Now try NC1=NC(c2cccc(Oc3ccc(Cl)cc3)c2)N(c2cccc(Cl)c2)C(N)=N1 (configuration not stated) .
Return: 0.49

Enquiry: Now try NC1=NC(c2cccc(Oc3ccccc3)c2)N(c2cccc(Cl)c2)C(N)=N1 (configuration not stated) .
Return: 0.53

Enquiry: Now try CCc1nc(N)nc(N)c1-c1cccc(Cl)c1 .
Return: 0.40

----------
Assay: In vitro anti-plasmodial activity against Plasmodium falciparum dihydrofolate reductase C59R/S108N (K1CB1) mutant
recorded.endpoint: IC50 (nM)
Give the value, in units of nM, as a plain number.

- NC1=NC(c2ccc(Oc3ccccc3)cc2)N(c2cccc(Cl)c2)C(N)=N1 (stereo unspecified): 3100

Enquiry: Consider the molecule NC1=NC(c2cccc(Oc3ccc(Cl)cc3)c2)N(c2ccc(Cl)cc2)C(N)=N1 (stereo unspecified) and give its measured IC50.
Return: 3300

----------
Test: In vitro anti-plasmodial activity against Plasmodium falciparum dihydrofolate reductase C59R+S108N/I164L (Csl-2) mutant
recorded.endpoint: IC50 (µM)
Give the value, in units of µM, as a plain number.

- CCCCCCC1(C)N=C(N)N=C(N)N1c1cccc(Cl)c1 (stereo not drawn): 0.49
- COc1ccc(CCCc2nc(N)nc(N)c2-c2cccc(Cl)c2)cc1: 2.7

Now look at this one.
Enquiry: Consider the compound CC(=O)OCCCc1nc(N)nc(N)c1-c1cccc(Cl)c1 and give its measured IC50.
Return: 1.8
